Origin of measurements: the supplement of paper PMC11246515

Assay: total protein half-life in vivo (active degradation + dilution); higher = more stable protein
Settings: wild type E. coli NCM3722; growth: N-lim chemostat; doubling time 12 h
Assign total protein half-life in vivo to each entry below.
Write the value in h as a bare number.

query: Check the records and state total protein half-life in vivo for MSNTYQKRKASKEYGLYNQCKKLNDDELFRLLDDHNSLKRISSARVLQLRGGQDAVRLAIEFCSDKNYIRRDIGAFILGQIKICKKCEDNVFNILNNMALNDKSACVRATAIESTAQRCKKNPIYSPKIVEQSQITAFDKSTNVRRATAFAISVINDKATIPLLINLLKDPNGDVRNWAAFAININKYDNSDIRDCFVEMLQDKNEEVRIEAIIGLSYRKDKRVLSVLCDELKKNTVYDDIIEAAGELGDKTLLPVLDTMLYKFDDNEIITSAIDKLKRS [P0ADK6]
result: 2.62

query: Determine from records and report total protein half-life in vivo for "MMYHIPGVLSPQDVARFREQLEQAEWVDGRVTTGAQGAQVKNNQQVDTRSTLYAALQNEVLNAVNQHALFFAAALPRTLSTPLFNRYQNNETYGFHVDGAVRSHPQNGWMRTDLSATLFLSDPQSYDGGELVVNDTFGQHRVKLPAGDLVLYPSSSLHCVTPVTRGVRVASFMWIQSMIRDDKKRAMLFELDNNIQSLKSRYGESEEILSLLNLYHNLLREWSEI"
result: 4.16
